test system: IGROV1 ovarian; assay: NCI-60 one-dose screen, 48 h (100 = growth as untreated, 0 = no growth, -100 = all killed); conditions: 10 µM unless noted
Compounds without any hit were thinned out: in the full panel of roughly 83,000, 20% have a hit.
QUANTITY_KIND: growth (%)
Express the result in % but write the number alone.

Item CN1CCN(Cc2ccc(NC(=O)c3[nH]ncc3Nc3ncnc4sc5c(c34)CCCC5)cc2)CC1 has what recorded growth? -60.9

Input COc1cc2c(cc1OCCCCCCN1CCN(c3ncnc4ccccc34)CC1)N=CC1CCCN1C2=O (centres undefined) 1.08

Now the same for CC(C)(O)CC(=O)NCCn1ccc2ncnc(Nc3ccc(Oc4cccc(C(F)(F)F)c4)c(Cl)c3)c21 -42.6

Okay, and Cc1cc(-c2cc(OC(=O)c3ccccc3)ccc2Cl)cc2nnc(Nc3ccc(OCCN4CCCC4)cc3)nc12 ? 69.4

* * *

Kindly state growth for each of the entries shown.
tested on: MOLT-4 leukemia; assay: NCI-60 one-dose screen, 48 h (100 = growth as untreated, 0 = no growth, -100 = all killed); settings: 10 µM unless noted
About 83,000 compounds went through this panel and 20% of them were active in at least one assay; those are over-represented in the sample as a whole.
Entry rule: numbers only, all in %.

Param readout = growth; param system = MOLT-4 leukemia; param query = S=C(NCc1ccc2c(c1)OCO2)N1CCN(c2ncnc3c2oc2ccccc23)CC1 ; response: value 5.79

Check CCc1cc2c(c3ccc(C(=O)CBr)cc13)CCCC2 too. 85.8

O=C(CNc1nnc(-c2ccc(Cl)cc2)o1)Nc1ccc(-c2nc3ccccc3s2)cc1 ? 33.2

Now the same for CN(C)C[C@@H]1CCn2cc(c3ccccc32)C2=C(C(=O)NC2=O)c2cn(c3ccccc23)CCO1 -4.3

Now this one: COc1cc(Nc2ncc3c(n2)-c2ccc(Cl)cc2C(c2c(F)cccc2OC)=NC3)ccc1C(=O)O 52.8

What would you report for COc1cc(NCCCN)c2ncccc2c1 ? 91.5

Next: Cc1cc2c3c(cccc3c1)C(=O)c1ccccc1-2 87.2

Let us now turn to COc1ccc(Cl)c(Nc2nc3ccccc3nc2NS(=O)(=O)c2cccc(NC(=O)C(C)(C)N)c2)c1 13.4

Can you handle CCN1CCN(Cc2ccc(-c3cc4c(N[C@H](C)c5ccccc5)ncnc4[nH]3)cc2)CC1 next? 37.8

What do you get for O=C(NOC[C@H](O)CO)c1ccc(F)c(F)c1Nc1ccc(I)cc1F ? 66.6

* * *

system: MCF7 breast; assay: NCI-60 one-dose screen, 48 h (100 = growth as untreated, 0 = no growth, -100 = all killed); details: 10 µM unless noted
About 83,000 compounds went through this panel and 20% of them were active in at least one assay; those are over-represented in the sample as a whole. Active and inactive are the calls of the source. Rule for the calls: active = growth percent below 10; inactive = the rest.
QUANTITY_KIND: growth

If you can, please state the reported growth value of CC(C)c1cc(CNc2nc(Nc3cc(C4CC4)[nH]n3)cc(N3CCN(C)CC3)n2)on1 . 11.5% (inactive)

Again, but for COc1ccc(-c2cc3c(C)nc(N)nc3n(C3CCC(OCCO)CC3)c2=O)cn1 (stereo not given) 1.58% (active)

Can you check CC(C)(O)CC(=O)NCCn1ccc2ncnc(Nc3ccc(Oc4cccc(C(F)(F)F)c4)c(Cl)c3)c21 next? 14.3% (inactive)

Try this compound too: CCOC(=O)C1=C(C)N=C2Sc3cccc(OC)c3N2[C@H]1c1ccccn1 97% (inactive)

Now try CC(=O)OCCC/C(=C\c1ccc2ccccc2c1)[N+](=O)[O-] . -85.2% (active)

* * *

tested on: OVCAR-3 ovarian; assay: NCI-60 one-dose screen, 48 h (100 = growth as untreated, 0 = no growth, -100 = all killed); conditions: 10 µM unless noted
Compounds without any hit were thinned out: in the full panel of roughly 83,000, 20% have a hit.
QUANTITY_KIND: growth (%)
Answer format: numeric, % implied, no suffix.

I'd like to know its growth. The compound in question is Cc1cc(N(CCNc2ccnc3cc(Cl)ccc23)Cc2cccs2)nc(Cl)n1 -77.4

Quick one: O=C(COc1cccc(/C=C2\Cc3ccc(Cl)cc3C2=O)c1)Nc1nccs1 89.6

Same again, this time with CO[C@@H](C)Cn1c(=O)n(C)c2cnc3ccc(-c4cncc(C(C)(C)O)c4)cc3c21 8.39

Then what about the compound C[C@H]1Oc2cc(cnc2N)-c2c(nn(C)c2C#N)CN(C)C(=O)c2ccc(F)cc21 ? 108

Then what about the compound CS(=O)(=O)N1CCc2c(-c3cnc(N)nc3)nc(N3CCOCC3)nc21 ? 9.64

* * *

test system: NCI-H522 lung; assay: NCI-60 one-dose screen, 48 h (100 = growth as untreated, 0 = no growth, -100 = all killed); conditions: 10 µM unless noted
About 83,000 compounds went through this panel and 20% of them were active in at least one assay; those are over-represented in the sample as a whole.
Record form. Attribute: growth. Fill in for each entry.
# unit: % | format: bare number

Endpoint output: growth of NC[C@@](O)(c1ccc(Cl)cc1)c1ccc(-c2cn[nH]c2)cc1 . Value? 17.7

And what about the compound COc1cc(NCCCN)c2ncccc2c1 ? 84

Now give it for Cc1ccccc1N1C(c2ccccc2)=NNC12C=CC(=O)C=C2Cl (stereo not drawn) too. 95.2

* * *

For each record, write down the corresponding growth.
tested on: SK-MEL-28 melanoma; assay: NCI-60 one-dose screen, 48 h (100 = growth as untreated, 0 = no growth, -100 = all killed); conditions: 10 µM unless noted
The panel holds about 83,000 compounds, 20% with a hit somewhere; the sample as a whole holds those more often.
Answer in %, number only, no unit symbol.

May I ask what growth has been recorded for CN(C)CCn1c(=O)c2c3cc4c(cc3n(CCN(C)C)c2c2ccc(Cl)cc21)OCO4 ? 87

Record: Cc1cc(N(CCNc2ccnc3cc(Cl)ccc23)Cc2ccc3c(c2)OCO3)nc(N2CCCC2)n1 -58.7

// repeat for Cc1nc(NC(=O)N2CCC[C@H]2C(N)=O)sc1-c1ccnc(C(C)(C)C(F)(F)F)c1 and report 49.2

Same read-out for CNC(=O)c1cc(Oc2ccc3nc(NC(=O)Nc4ccc(Cl)c(C(F)(F)F)c4)sc3c2)ccn1 ? 34.7

Quick one: COC(=O)CC[C@@H](C)[C@H]1CC[C@H]2C3CC[C@@H]4C[C@@H]5CC[C@]4(C)[C@@]3(O5)[C@H](Br)[C@@H](Br)[C@]12C (stereo partly drawn) 105

Same for O=C(NOCCO)c1ccc2cncn2c1Nc1ccc(I)cc1F 3.91

What do you get for CCCCCC(=O)OCc1ccc(Cl)c(Cl)c1 ? 111

Moving on to O=[N+]([O-])c1cc(Br)cc2c1[nH]c1ccc(Br)cc12 89.8

Also COc1ccc(C(=O)c2cc(OC)c(OC)c(OC)c2)cc1/C=C/C(=O)c1ccc(F)cc1 ? 13.1

Repeat with C=CCn1c(=O)c2cnc(Nc3ccc(N4CCN(C)CC4)cc3)nc2n1-c1cccc(C(C)(C)O)n1 64.4

Same question for Cc1c(Cn2c(C)nc3c(C(=O)O)cc(N4CCOCC4)cc32)cccc1C(F)(F)F please. 80.9

Entry to check: COc1cc2c(Oc3ccc4[nH]c(C)cc4c3F)ncnc2cc1OCCCN1CCCC1 95.8

Query N#CCNC(=O)c1ccc(-c2ccnc(Nc3ccc(N4CCOCC4)cc3)n2)cc1 next 36.7

Repeat with COC(=O)CCCNc1c(-c2c(O)c(O)cc3c(O)c(-c4c(C)cc5c(-c6nc7ccccn7c6NCCCC(=O)OC)c(O)c(O)cc5c4O)c(C)cc23)nc2ccccn12 39.7

// same read-out, input: O=C(c1c(F)ccc(NS(=O)(=O)N2CC[C@@H](F)C2)c1F)c1c[nH]c2ncc(-c3cnc(C4CC4)nc3)cc12 -5.44

For Cc1cc(Nc2ncc(Cl)c(Nc3ccccc3S(=O)(=O)C(C)C)n2)c(OC(C)C)cc1C1CCNCC1 then? -99.3

Next record, please: Cc1cnc(Nc2ccc(OCCN3CCCC3)cc2)nc1Nc1cccc(S(=O)(=O)NC(C)(C)C)c1 -10.7

Same question for CN[C@@H]1C[C@H]2O[C@@](C)([C@@H]1OC)n1c3ccccc3c3c4c(c5c6ccccc6n2c5c31)C(=O)N[C@H]4O please. -61.3

* * *

System: BT-549 breast
Assay: NCI-60 one-dose screen, 48 h (100 = growth as untreated, 0 = no growth, -100 = all killed)
Details: 10 µM unless noted
Procedure: Growth inhibition of the BT-549 human tumor cell line is measured as a screen for anti-cancer activity. Cells are grown in 96 well plates and exposed to the test compound for 48 hours. Compounds are tested at a single concentration, which is 10^-5 M for most compounds. The reported endpoint is percent growth (GI% or GIPRCNT), where numbers from 0 - 100% represent growth inhibition, and numbers from -100% - 0 represent cell death. For example, a value of 40 represents 60% growth inhibition. […]
This is part of a sample that, as a whole, favours compounds with a hit. Of some 83,000 tested, about 20% had one in any assay.
Would you kindly list growth for each of these compounds?
Express the result in % but write the number alone.

Observed growth on BT-549 breast for CCCS(=O)(=O)Nc1ccc(F)c(C(=O)c2c[nH]c3ncc(-c4ccc(Cl)cc4)cc23)c1F , please. 41.1

Same lookup for O=C(Nc1cccc(Cl)c1)Nc1ncc(CCNc2ncnc3ccsc23)s1 , please. 0.164

Also O=C(Cn1c(=O)ccn(CCCCCCCCOc2ccc(Br)cc2)c1=O)Nc1ccc(Oc2ccc(Cl)cc2)cc1 ? 54.1

And then COc1cc2ncnc(Nc3ccc(F)c(Cl)c3)c2cc1NC(=O)/C=C/CN1CCCCC1 , what is it? -32.4

Check CC(N)C(Cc1ccc(Cl)cc1)c1ccc(Cl)cc1 (centres undefined) too. 77.6

Try the compound C=C1C(=O)O[C@H]2[C@H]1CC/C(CNC(=O)c1cc3cc(OC)ccc3[nH]1)=C\CC[C@@]1(C)O[C@@H]21 -68.1

Ok, now CC(=O)OC1Oc2ccccc2-c2oc(=O)c(-c3cc4ccc(N(C)C)cc4oc3=O)cc21 (centres undefined) 15.9

Then this compound: COCc1c(-c2ccc(NC(=O)Nc3cc(C(F)(F)F)ccc3F)c(F)c2)c2c(N)ncnn2c1CN1CCOCC1 -39.5

Another: COc1ccc(CCCc2c3[n+](cc4c(OC)c(OC)ccc24)CCc2cc4c(cc2-3)OCO4)cc1 41.8

Provenance of the data: PubChem BioAssay (NCI)
